System: in vitro BBB model: primary bovine brain capillary endothelial cells supported by primary rat glial cells
Where no end group is shown, it is not given here.
Strictly below 0.8% in Abluminal vs. total: criterion met. Otherwise: criterion not met.

Q) Problem: For the substance YYDYSGAFR , is Abluminal vs. total under 0.8%?
A) criterion met

Q) Criterion: Abluminal vs. total strictly below 0.8%. Is it met by DSSHAFTLDELR [MTfp] ?
A) criterion not met

Q) Input ADTDGGLIFR ; condition: Abluminal vs. total strictly below 0.8%. Does it hold?
A) criterion not met

Q) Is the reported Abluminal vs. total for VPAHAVVVR strictly below 0.8%?
A) criterion not met

----------
Hi there, I'd appreciate the recorded Lum 120:Area for every entry that follows.
Test system: in vitro BBB model: primary bovine brain capillary endothelial cells supported by primary rat glial cells
Assay: In vitro BBB model transcytosis of trypsin-digested sMTf, peptides identified by mass spectrometry
Details: MS peak area in luminal compartment at 120 min; trypsin-digested sMTf 0.25 mg/mL luminal, Ringer-HEPES, 37°C, 2 h, LC-MS; one peptide may have several lines
Where no end group is shown, it is not given here.
Quick one: just the number, no unit, thanks!

Q) Tell me the measured Lum 120:Area of ADTDGGLIFR , please.
A) 1.11E+10

Q) Param item = ADVTEWR [ADVTEWR] ; retrieve measured Lum 120:Area.
A) 9.31E+08

Q) Which Lum 120:Area value belongs to VPAHAVVVR ?
A) 3.48E+07

Q) Need Lum 120:Area, item YYDYSGAFR
A) 1.00E+09

Q) // lookup Lum 120:Area for DSSHAFTLDELR [MTfp]
A) 1.03E+10

----------
Tested on: in vitro BBB model: primary bovine brain capillary endothelial cells supported by primary rat glial cells
Where no end group is shown, it is not given here.
The threshold is 2%. Values of Abluminal vs. luminal beneath it are tagged class 1; values meeting or exceeding it are tagged class 0.

Q) Does the reported Abluminal vs. luminal of the following substance sit strictly below 2%? ADTDGGLIFR
A) class 0

Q) Below 2% on Abluminal vs. luminal? Entry YYDYSGAFR
A) class 1

Q) Please check: Abluminal vs. luminal for DSSHAFTLDELR [MTfp] , strictly under 2% or not?
A) class 0

Q) Hi there! Is Abluminal vs. luminal for VPAHAVVVR below 2%, do you know?
A) class 0

Q) Consider ADVTEWR [ADVTEWR] . Does its Abluminal vs. luminal lie strictly below 2%?
A) class 1

----------
System: in vitro BBB model: primary bovine brain capillary endothelial cells supported by primary rat glial cells
recorded_endpoint: Lum 120:Area
Please state the value as a number alone, without comment.

Q) // query Lum 120:Area value for entry LCRGDSSGEGVCDK
A) 2.17E+05

Q) I'd like to know its Lum 120:Area. The sequence in question is AVSDYFGGSCVPGAGETSYSESLCR
A) 5.51E+09

Q) Item ADTDGGLIFRLLNEGQR has what recorded Lum 120:Area?
A) 3.69E+07

Q) Given the entry NYPSSLCALCVGDEQGR , report its measured Lum 120:Area.
A) 6.15E+08

Q) Fill in: Lum 120:Area of GDSSGEGVCDKSPLER is ___
A) 5.08E+08

Q) I am curious: what Lum 120:Area value has been reported for TVGWNVPVGYLVESGR ?
A) 9.38E+07

Q) Which Lum 120:Area is listed for IQAEQVDAVTLSGEDIYTAGK ?
A) 3.48E+06

Q) Would you mind telling me what Lum 120:Area value was observed for DSSHAFTLDELRGK ?
A) 0.00E+00

Q) Given the entry EHGLKPVVGEVYDQEVGTSYYAVAVVRR , report its measured Lum 120:Area.
A) 0.00E+00

----------
System: in vitro BBB model: primary bovine brain capillary endothelial cells supported by primary rat glial cells
Assay: In vitro BBB model transcytosis of trypsin-digested sMTf, peptides identified by mass spectrometry
Details: MS peak area in abluminal compartment at 120 min; trypsin-digested sMTf 0.25 mg/mL luminal, Ringer-HEPES, 37°C, 2 h, LC-MS; one peptide may have several lines
Where no end group is shown, it is not given here.
recorded_endpoint: Ablum 120:Area
Give the value as a plain number.

Q) Item YYDYSGAFR has what recorded Ablum 120:Area?
A) 6.41E+09

Q) I have this substance here, VPAHAVVVR , and I need its recorded Ablum 120:Area.
A) 1.24E+08

Q) Give the measured Ablum 120:Area of DSSHAFTLDELR [MTfp] .
A) 5.87E+09

Q) Entry ADTDGGLIFR has what Ablum 120:Area?
A) 1.59E+10

Q) Recorded Ablum 120:Area of ADVTEWR [ADVTEWR] , please.
A) 1.05E+10

----------
Please respond with reported Ablum 120:Area for every item in the list.
Test system: in vitro BBB model: primary bovine brain capillary endothelial cells supported by primary rat glial cells
A bare number is all that is needed in reply.

Q) Can you look up the measured Ablum 120:Area of GDSSGEGVCDKSPLER for me?
A) 1.93E+09

Q) What measured Ablum 120:Area goes with TVGWNVPVGYLVESGR ?
A) 0.00E+00

Q) Item under review: NYPSSLCALCVGDEQGR . Reported Ablum 120:Area?
A) 7.34E+07

Q) Entry AVSDYFGGSCVPGAGETSYSESLCR : reported Ablum 120:Area = ?
A) 5.49E+08

Q) Tell me the measured Ablum 120:Area of LCRGDSSGEGVCDK , please.
A) 2.64E+05

Q) Looking for the measured Ablum 120:Area of IQAEQVDAVTLSGEDIYTAGK , can you help?
A) 0.00E+00

Q) Suppose we examine the sequence EHGLKPVVGEVYDQEVGTSYYAVAVVRR ; what Ablum 120:Area value has been reported?
A) 1.70E+07

Q) Which measured Ablum 120:Area value corresponds to ADTDGGLIFRLLNEGQR ?
A) 0.00E+00

Q) Reported Ablum 120:Area, sequence DSSHAFTLDELRGK : ____
A) 1.99E+07

Every entry's value here was drawn from paper PMC8212695.
